test system: Enterococcus sp.; assay: in vitro antibacterial evaluation, MIC by broth dilution; assay type: cell-based; details: Enterococcus faecium (GC 4557); broth dilution, 18 hours at 35° C.
endpoint name: MIC Enterococcus faecium (GC 4557)

Tested on Enterococcus sp.: CC(c1ccccc1)C1NC(=O)CNC(=O)C(CO)NC(=O)C(C(O)C2CNC(=N)N2C2OC(CO)C(O)C(O)C2O)NC(=O)C(C(O)C2CNC(=N)N2)NC(=O)C(Cc2ccc(OC3OC(CO)C(OC4OC5COC(c6ccc7c(c6)OCO7)OC5C(O)C4O)C(O)C3O)cc2)NC1=O (stereo not drawn) . Observed MIC Enterococcus faecium (GC 4557): 2 to 8 µg/mL

The compound CC(c1ccccc1)C1NC(=O)CNC(=O)C(CO)NC(=O)C(C(O)C2CN(Cc3ccc(-c4ccccc4)cc3)C(=N)N2C2OC(CO)C(O)C(O)C2O)NC(=O)C(C(O)C2CNC(=N)N2)NC(=O)C(Cc2ccc(OC3OC(CO)C(OC4OC(CO)C(O)C(O)C4O)C(O)C3O)cc2)NC1=O (stereo not drawn) [Example 66a] , tested on Enterococcus sp., showed MIC Enterococcus faecium (GC 4557) of >128 µg/mL

The reported Enterococcus sp. MIC Enterococcus faecium (GC 4557) of CC(C1CCCCC1)C1NC(=O)CNC(=O)C(CO)NC(=O)C(C(O)C2CNC(=N)N2C2OC(CO)C(O)C(O)C2O)NC(=O)C(C(O)C2CNC(=N)N2)NC(=O)C(CC2CCC(OC3OC(CO)C(OC4OC(CO)C(O)C(O)C4O)C(O)C3O)CC2)NC1=O (stereo not drawn) [Example 53a] is >128 µg/mL

The values you see were collected from patent US6914045B2.
